The reported numbers originate from patent US20100260765A1.

Measured Activity at 133 nM (% Inhibition), 24-hour Pre-incubation at 37° C., Average, listed per entry.
Assayed System: KDR (human, UniProt P35968 20-1356)
Sequence (P35968 20-1356): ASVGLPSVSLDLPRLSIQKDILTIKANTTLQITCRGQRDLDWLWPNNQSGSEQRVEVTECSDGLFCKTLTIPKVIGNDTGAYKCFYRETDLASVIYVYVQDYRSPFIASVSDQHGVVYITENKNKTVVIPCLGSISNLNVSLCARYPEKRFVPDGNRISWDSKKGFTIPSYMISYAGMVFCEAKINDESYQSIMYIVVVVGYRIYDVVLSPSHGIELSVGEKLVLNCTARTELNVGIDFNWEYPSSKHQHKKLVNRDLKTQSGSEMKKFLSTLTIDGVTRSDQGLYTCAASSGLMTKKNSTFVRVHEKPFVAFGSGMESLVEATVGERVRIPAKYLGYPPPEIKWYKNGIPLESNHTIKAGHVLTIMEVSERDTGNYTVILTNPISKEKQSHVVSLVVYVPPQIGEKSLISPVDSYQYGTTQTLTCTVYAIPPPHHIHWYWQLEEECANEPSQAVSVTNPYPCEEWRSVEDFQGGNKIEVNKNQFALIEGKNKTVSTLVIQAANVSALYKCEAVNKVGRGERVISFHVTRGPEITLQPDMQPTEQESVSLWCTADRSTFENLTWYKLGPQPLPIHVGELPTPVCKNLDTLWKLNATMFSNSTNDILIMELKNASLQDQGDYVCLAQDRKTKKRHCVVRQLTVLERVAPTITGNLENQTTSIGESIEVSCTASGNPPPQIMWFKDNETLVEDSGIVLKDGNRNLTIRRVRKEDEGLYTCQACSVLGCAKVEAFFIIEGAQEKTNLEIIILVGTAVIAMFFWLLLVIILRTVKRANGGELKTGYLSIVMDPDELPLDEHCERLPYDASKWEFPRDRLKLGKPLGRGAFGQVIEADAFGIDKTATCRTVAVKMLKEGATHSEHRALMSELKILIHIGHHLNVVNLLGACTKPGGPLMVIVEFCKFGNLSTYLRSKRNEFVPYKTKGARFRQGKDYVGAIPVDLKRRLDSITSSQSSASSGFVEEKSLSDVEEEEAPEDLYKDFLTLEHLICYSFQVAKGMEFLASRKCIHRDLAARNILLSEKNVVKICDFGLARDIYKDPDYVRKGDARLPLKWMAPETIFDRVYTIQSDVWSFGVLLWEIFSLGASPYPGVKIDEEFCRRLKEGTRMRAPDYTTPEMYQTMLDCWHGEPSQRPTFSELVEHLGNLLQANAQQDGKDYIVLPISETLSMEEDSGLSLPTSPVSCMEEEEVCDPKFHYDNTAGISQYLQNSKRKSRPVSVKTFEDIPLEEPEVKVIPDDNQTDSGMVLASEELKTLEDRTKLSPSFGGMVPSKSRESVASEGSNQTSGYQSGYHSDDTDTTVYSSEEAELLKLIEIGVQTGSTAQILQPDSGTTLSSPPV
Assay Info: cell-based or functional assay
Metric Name: Activity at 133 nM (% Inhibition), 24-hour Pre-incubation at 37° C., Average (%)

[
  {
    "Binder": "33D5 (antibody, V domains shown) VH: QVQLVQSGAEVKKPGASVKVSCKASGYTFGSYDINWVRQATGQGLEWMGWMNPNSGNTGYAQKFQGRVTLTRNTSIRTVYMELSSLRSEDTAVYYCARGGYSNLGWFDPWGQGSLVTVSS VL: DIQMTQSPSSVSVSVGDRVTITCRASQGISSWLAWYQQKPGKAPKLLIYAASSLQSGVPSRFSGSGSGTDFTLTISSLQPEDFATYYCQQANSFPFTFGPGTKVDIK",
    "Unit Abbreviation": "%",
    "Result Value": -15
  },
  {
    "Binder": "24B3 (antibody, V domains shown) VH: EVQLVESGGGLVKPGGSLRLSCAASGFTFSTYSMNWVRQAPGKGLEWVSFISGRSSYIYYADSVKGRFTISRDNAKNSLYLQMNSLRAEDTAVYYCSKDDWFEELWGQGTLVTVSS VL: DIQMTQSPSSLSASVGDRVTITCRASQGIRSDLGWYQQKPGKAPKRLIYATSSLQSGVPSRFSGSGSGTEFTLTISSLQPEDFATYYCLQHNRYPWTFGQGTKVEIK",
    "Unit Abbreviation": "%",
    "Result Value": 72
  },
  {
    "Binder": "27A3 (antibody, V domains shown) VH: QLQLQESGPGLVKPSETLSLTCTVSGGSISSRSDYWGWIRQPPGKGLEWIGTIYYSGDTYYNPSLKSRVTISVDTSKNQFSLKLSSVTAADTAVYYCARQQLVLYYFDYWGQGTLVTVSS VL: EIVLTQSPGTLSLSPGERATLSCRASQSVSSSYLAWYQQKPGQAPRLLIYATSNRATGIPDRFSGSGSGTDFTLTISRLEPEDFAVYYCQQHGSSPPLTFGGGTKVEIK",
    "Unit Abbreviation": "%",
    "Result Value": 9
  },
  {
    "Binder": "32F4 (antibody, V domains shown) VH: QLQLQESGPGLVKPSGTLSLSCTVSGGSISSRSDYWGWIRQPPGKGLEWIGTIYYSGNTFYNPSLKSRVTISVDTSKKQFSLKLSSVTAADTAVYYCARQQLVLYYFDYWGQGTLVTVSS VL: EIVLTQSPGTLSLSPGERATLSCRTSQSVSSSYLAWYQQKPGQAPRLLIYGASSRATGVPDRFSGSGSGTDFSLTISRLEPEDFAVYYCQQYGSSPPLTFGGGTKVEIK",
    "Unit Abbreviation": "%",
    "Result Value": 22
  }
]
